# Test system: SK-MEL-5
# Procedure details: NCI tumour cell line growth inhibition, 48 h
The source made the active and inactive calls. Cut-off read from the data, not from the text of the source: active = GI50 up to about 1.1 µM and inactive = higher.
Your reply should match one of these outcome classes. 1 for active, -1 for inactive

QUERY: Can you look up the reported call for "CN(C)CCNC(=O)c1cccc2ccc(-c3cccnc3)nc12" for me?
RESULT: -1

----------
# System: BT-549
# Procedure details: NCI tumour cell line growth inhibition, 48 h
Active and inactive are the calls of the source. No stated cut-off is given here; in the data, active = GI50 up to about 1.1 µM and inactive = higher. Peptide text beside a SMILES is read from it. * marks the point of attachment. Boc = CC(C)(C)OC(=O)*
Property label: GI50

Illustrative cases are given below, each with its answer.
Molecule | GI50
O=C1CSC2=NC3=C(COC/C3=C\c3ccc(Br)cc3)C(c3ccc(Br)cc3)N12 (configuration not stated) | > 100 µM (inactive)
CC(C)(C)OC(=O)NCCC1CN(C(=O)c2ccccc2)c2ccccc21 (configuration not stated) | 25.1 µM (inactive)

QUERY: Return GI50 for the following molecule: CCCCCCCCCCCC[C@@H](O)[C@H]1CCC([C@H](O)CCCCC(=O)CCCCCCCC2=C[C@H](C)OC2=O)O1 (some centres not stated)
RESULT: 9.06 µM (inactive)

QUERY: Return GI50 for the following molecule: "COC(=O)CCNC(=O)OCc1ccccc1"
RESULT: > 100 µM (inactive)

QUERY: Return GI50 for the following molecule: "Cc1cccc2cc3ccc4ccccc4c3cc12"
RESULT: > 100 µM (inactive)

QUERY: Return GI50 for the following molecule: CCOCC(NC(=O)C(CC(C)C)NC(=O)OC(C)(C)C)C(N)=O (stereo not drawn) (Boc-Leu-Ser(Et)-NH2; configuration not given here)
RESULT: > 100 µM (inactive)

QUERY: Return GI50 for the following molecule: "O=C(O)c1nn(-c2ccccc2-c2nnc(O)nc2O)c(=O)[nH]c1=O"
RESULT: > 100 µM (inactive)

QUERY: Return GI50 for the following molecule: "Clc1ccc(OCc2nnc3sc(-c4ccc(-c5ccc(Cl)cc5Cl)o4)nn23)cc1"
RESULT: > 100 µM (inactive)

QUERY: Return GI50 for the following molecule: "CC(=O)Nc1ccc2c(c1)nc1c3ccccc3ccn21"
RESULT: > 100 µM (inactive)
